Field: Stability (half-life (hr.)). Provide a value for each of the binders that follow.
system tested: HLA-A24.02 (human)
protocol notes: pMHC-I complex dissociation at 37 C, radiolabeled b2m
cond: remark: other sources report otherwise

What Stability (half-life (hr.)) value was documented for this binder, MQLMPFGCLL ?
0 min

Now consider VQLIMQLMPF .
0 min

Now the binder QLIMQLMPF
22.1 min

Consider next the binder IMQLMPFGCL in the same way.
0 min
